- TESTED ON: T1, AIM2FL (Homo sapiens, UniProt O14862 1-343)
- T1 sequence: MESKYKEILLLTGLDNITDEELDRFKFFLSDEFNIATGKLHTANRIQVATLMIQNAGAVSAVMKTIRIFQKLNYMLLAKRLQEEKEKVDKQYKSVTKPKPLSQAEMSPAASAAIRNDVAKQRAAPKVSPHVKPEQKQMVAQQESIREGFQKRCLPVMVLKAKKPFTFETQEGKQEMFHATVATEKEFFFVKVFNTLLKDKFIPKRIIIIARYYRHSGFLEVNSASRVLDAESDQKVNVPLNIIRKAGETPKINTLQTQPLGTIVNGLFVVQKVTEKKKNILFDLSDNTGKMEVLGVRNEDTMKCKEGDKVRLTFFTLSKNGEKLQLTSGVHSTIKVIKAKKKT
- PROTOCOL DETAILS: fluorescence anisotropy; 160 mM KCl (60 mM KCl for IFI16HinAB); buffer, pH and temperature not given in the available text
- MEASUREMENT PARAMETERS: protein: recombinant
pKd: −log10 of the molar value.
Outcome label depends on pKd relative to 7: at/above gives met, below gives not met.

*Q* API: above_or_equal(metric=pKd, cutoff=7) for item 60-bp DNA:RNA hybrid (DNA:RNA) DNA: TAAGACACGATGCGATAAAATCTGTTTGTAAAATTTATTAAGGGTACAAATTGCCCTAGC RNA: GCUAGGGCAAUUUGUACCCUUAAUAAAUUUUACAAACAGAUUUUAUCGCAUCGUGUCUUA
*A* met

*Q* API: above_or_equal(metric=pKd, cutoff=7) for item 60-bp dsRNA (dsRNA) RNA 1: UAAGACACGAUGCGAUAAAAUCUGUUUGUAAAAUUUAUUAAGGGUACAAAUUGCCCUAGC RNA 2: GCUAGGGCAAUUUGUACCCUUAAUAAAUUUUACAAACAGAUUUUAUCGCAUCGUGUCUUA
*A* met

*Q* API: above_or_equal(metric=pKd, cutoff=7) for item 60-base ssDNA_T (ssDNA) DNA: TTTCTTTCTTTCTTTCTTTCTTTCTTTCTTTCTTTCTTTCTTTCTTTCTTTCTTTCTTTC
*A* not met

*Q* API: above_or_equal(metric=pKd, cutoff=7) for item 60-base ssRNA_A (ssRNA) RNA: AAAGAAAGAAAGAAAGAAAGAAAGAAAGAAAGAAAGAAAGAAAGAAAGAAAGAAAGAAAG
*A* not met
